The measurements presented in this section are drawn from PubChem BioAssay (EPA / NIEHS).

# Read-out: ABC Transporter (ABCC2), ABCC2 (gene 1244)
# protocol-text: LTEA_HepaRG_ABCC2: Life Technologies and Expression Analysis (LTEA) Assay for ABC Transporter (ABCC2) using HepaRG (AID 2283464)
# condition-details: mRNA level, 48 h; actives raise or lower the signal
Activity calls are given as the source filed them. The calls were made as follows: active = hit-call score of the fitted dose curve at least 0.9, where 1 is the maximum; inactive = score below 0.9.
Outcome codes: yes for active, no for inactive

* Cc1ccccc1CO[C@@H]1C[C@@]2(C(C)C)CC[C@]1(C)O2 | yes
* O=C(N[C@H]1CN2CCC1CC2)c1cc2ccoc2cn1 | no
* O=C(NC(=O)c1c(F)cccc1F)Nc1cc(Cl)c(OC(F)(F)C(F)F)c(Cl)c1 | no

###

# Read-out: Collagen III, COL3A1 (gene 1281)
# protocol-text: BSK_MyoF_CollagenIII: BioMAP Diversity Plus: MyoF Assay for Collagen III Biomarker Activity (AID 2284239)
# condition-details: primary human lung fibroblasts
Activity calls are given as the source filed them. The calls were made as follows: active = hit-call score of the fitted dose curve at least 0.9, where 1 is the maximum; inactive = score below 0.9.
assay-readout: AC50

• O=S(=O)(O)C(F)(F)C(F)(F)C(F)(F)C(F)(F)F = inactive
• Sc1ccccc1 = inactive
• O=S(=O)(O)C(F)(F)C(F)(F)C(F)(F)C(F)(F)C(F)(F)C(F)(F)F = inactive
• Oc1c(Cl)c(Cl)c(Cl)c(Cl)c1Cl = 4.07 µM (active)

###

# study-system: Nuclear respiratory factor 1 (Homo sapiens) (UniProt Q16656)
# Sequence (Q16656 whole entry, looked up): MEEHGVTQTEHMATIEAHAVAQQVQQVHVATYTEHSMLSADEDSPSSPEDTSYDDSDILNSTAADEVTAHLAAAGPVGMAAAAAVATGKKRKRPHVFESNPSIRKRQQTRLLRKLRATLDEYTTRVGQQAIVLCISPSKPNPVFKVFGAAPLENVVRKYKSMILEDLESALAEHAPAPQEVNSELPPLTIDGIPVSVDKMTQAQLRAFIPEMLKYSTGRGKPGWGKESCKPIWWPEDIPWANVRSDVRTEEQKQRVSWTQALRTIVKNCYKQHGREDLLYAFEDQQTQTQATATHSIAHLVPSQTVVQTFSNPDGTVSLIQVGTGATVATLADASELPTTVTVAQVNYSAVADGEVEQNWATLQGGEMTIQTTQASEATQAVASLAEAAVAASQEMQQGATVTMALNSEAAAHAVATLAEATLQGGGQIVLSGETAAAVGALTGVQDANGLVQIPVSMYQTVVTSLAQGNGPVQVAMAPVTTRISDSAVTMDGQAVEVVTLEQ
# protocol-text: ATG_NRF1_CIS: Attagene CIS-FACTORIAL HepG2 Assay for human Nuclear Respiratory Factor 1 (NRF1) Orphan Gene (AID 2282987)
# condition-details: HepG2 NRF1 cis-element reporter, Attagene multiplex; actives raise or lower the signal
Activity calls are given as the source filed them. Rule for the calls: active = hit-call score of the fitted dose curve at least 0.9, where 1 is the maximum; inactive = score below 0.9.
assay-readout: outcome

- O=NN(c1ccccc1)c1ccccc1: inactive
- CC#Cc1cc(C)nc(Nc2ccccc2)n1: inactive
- O=C(NC(=O)c1cc(F)c(F)cc1Cl)Nc1cc(F)ccc1N1CCC(C(=O)O)CC1: inactive

###

# study-system: Signal transducer and activator of transcription 3 (Homo sapiens) (UniProt P40763)
# Sequence (P40763 whole entry, looked up): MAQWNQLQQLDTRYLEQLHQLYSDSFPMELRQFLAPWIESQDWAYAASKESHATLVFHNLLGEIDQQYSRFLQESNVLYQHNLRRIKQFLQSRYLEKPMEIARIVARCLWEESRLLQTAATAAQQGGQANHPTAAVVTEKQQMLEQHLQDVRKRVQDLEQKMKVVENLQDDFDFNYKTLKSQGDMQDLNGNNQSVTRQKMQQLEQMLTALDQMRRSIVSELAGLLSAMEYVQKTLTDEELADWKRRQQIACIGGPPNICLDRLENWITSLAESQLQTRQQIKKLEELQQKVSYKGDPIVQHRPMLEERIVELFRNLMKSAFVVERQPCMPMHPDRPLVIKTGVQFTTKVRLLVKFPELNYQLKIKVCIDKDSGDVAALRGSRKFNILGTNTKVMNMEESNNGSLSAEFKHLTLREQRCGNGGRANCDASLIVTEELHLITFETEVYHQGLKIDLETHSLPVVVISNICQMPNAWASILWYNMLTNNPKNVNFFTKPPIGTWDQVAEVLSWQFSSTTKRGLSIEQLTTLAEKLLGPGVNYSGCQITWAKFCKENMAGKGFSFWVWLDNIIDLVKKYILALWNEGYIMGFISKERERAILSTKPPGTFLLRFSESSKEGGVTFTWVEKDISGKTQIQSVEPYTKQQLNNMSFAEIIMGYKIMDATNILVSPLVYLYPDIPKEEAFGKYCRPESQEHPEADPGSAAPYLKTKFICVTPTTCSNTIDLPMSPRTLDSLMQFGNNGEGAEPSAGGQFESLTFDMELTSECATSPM
# protocol-text: ATG_STAT3_CIS: Attagene CIS-FACTORIAL HepG2 Assay for human Signal Transducer and Activator of Transcription 3 (STAT3) (AID 2282963)
# condition-details: HepG2, Attagene cis-factorial STAT3 reporter transcription; actives raise or lower the signal
Calls of active or inactive are those of the source. Rule for the calls: active = hit-call score of the fitted dose curve at least 0.9, where 1 is the maximum; inactive = score below 0.9.
assay-readout: outcome

- ClC1=C(Cl)[C@]2(Cl)[C@@H]3[C@@H](Cl)[C@H]4O[C@H]4[C@@H]3C1(Cl)C2(Cl)Cl: inactive
- Clc1ccc(Cl)cc1: inactive
- Clc1ccc(C(Cl)(Cl)Cl)cc1: inactive
- CCC(C)(CC)c1cc(NC(=O)c2c(OC)cccc2OC)on1: inactive
- Nn1cnnc1: inactive
- COS(=O)(=O)OC: inactive
- Sc1ccccc1: inactive
- c1ccc(-c2ccccc2)cc1: inactive
- CCNc1nc(NC(C)C)nc(SC)n1: inactive
- CN(C)c1nc(=O)n(C2CCCCC2)c(=O)n1C: inactive
- Clc1ccc(C(c2ccccc2Cl)C(Cl)(Cl)Cl)cc1 (stereo not drawn): inactive
- CCCCCCCCOC(=O)c1ccccc1C(=O)OCCCCCCCC: inactive
- O=C(NC(=O)c1cc(F)c(F)cc1Cl)Nc1cc(F)ccc1N1CCC(C(=O)O)CC1: inactive

###

# protocol-text: ACEA_AR_antagonist_AUC_viability: ACEA Biosciences xCELLigence Real-Time Cell Analysis on Androgen Receptor Antagonism for Viability (AID 2283776);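 also: 22Rv1 human prostate cancer cells growing on impedance electrode plates; area under impedance growth curve at 80 h after dosing as viability; hits lower the growth signal relative to DMSO meaning cytotoxicity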
Records with an inconclusive call do not appear. Active and inactive are the calls of the source. How the source made its calls: active means hit-call score of the fitted dose curve at least 0.9, where 1 is the maximum; inconclusive means response in the unintended direction; inactive means score below 0.9.
Possible outcomes: true (1) (active), false (0) (inactive)

• CCCCCCCCCC[N+](C)(C)CCCCCCCCCC = true (1)
• CCC(C)c1cc([N+](=O)[O-])cc([N+](=O)[O-])c1O (configuration not stated) = true (1)
• Clc1ccc(Cl)cc1 = false (0)
• O=C(NC(=O)c1c(F)cccc1F)Nc1cc(Cl)c(OC(F)(F)C(F)F)c(Cl)c1 = true (1)
• CCCCCCOC(=O)c1ccccc1C(=O)OCCCCCC = true (1)
• ClC(Cl)=C(c1ccc(Cl)cc1)c1ccc(Cl)cc1 = true (1)
• Oc1c(Cl)c(Cl)c(Cl)c(Cl)c1Cl = true (1)

###

# Read-out: Signal transducer and activator of transcription 3 (Homo sapiens)
# protocol-text: LTEA_HepaRG_STAT3: Life Technologies and Expression Analysis (LTEA) Assay for Signal transducer and activator of transcription (STAT3) using HepaRG (AID 2283529)
# condition-details: mRNA level, 48 h; actives raise or lower the signal
Active and inactive are the calls of the source. The calls were made as follows: active = hit-call score of the fitted dose curve at least 0.9, where 1 is the maximum; inactive = score below 0.9.
Labels: true (1) for active, false (0) for inactive

* CCC(=O)O[C@H]1CC[C@H]2[C@@H]3CCC4=CC(=O)CC[C@]4(C)[C@H]3CC[C@]12C | false (0)
* CCC(C)c1cc([N+](=O)[O-])cc([N+](=O)[O-])c1O (configuration not stated) | true (1)
* Clc1ccc(C(c2ccccc2Cl)C(Cl)(Cl)Cl)cc1 (configuration not stated) | false (0)
* O=S(=O)(O)C(F)(F)C(F)(F)C(F)(F)C(F)(F)C(F)(F)C(F)(F)F | false (0)
* Cc1ccccc1[N+](=O)[O-] | false (0)
* NS(=O)(=O)C(F)(F)C(F)(F)C(F)(F)C(F)(F)C(F)(F)C(F)(F)C(F)(F)C(F)(F)F | true (1)
* COS(=O)(=O)OC | false (0)
* O=C(O)C(F)(F)C(F)(F)C(F)(F)C(F)(F)C(F)(F)C(F)(F)C(F)(F)C(F)(F)F | false (0)
* Cc1ccc(O)c(C)c1 | false (0)
* Nn1cnnc1 | false (0)
* N#Cc1ccc(N(CC(N)=O)CC(F)(F)F)cc1C(F)(F)F | false (0)
* Cc1ccccc1O | false (0)
* O=C(O)C(F)(F)C(F)(F)C(F)(F)C(F)(F)C(F)(F)C(F)(F)C(F)(F)C(F)(F)C(F)(F)F | true (1)
* CCOCCOC(C)=O | false (0)
* Cc1ccccc1CO[C@@H]1C[C@@]2(C(C)C)CC[C@]1(C)O2 | false (0)
* O=C(NC(=O)c1c(F)cccc1F)Nc1cc(Cl)c(OC(F)(F)C(F)F)c(Cl)c1 | true (1)
* Cc1cccc([N+](=O)[O-])c1 | false (0)
* CCNc1nc(NC(C)C)nc(SC)n1 | false (0)
* Cc1cc(O)ccc1Cl | false (0)
* CCCCCCOC(=O)c1ccccc1C(=O)OCCCCCC | false (0)
* CCC(C)(c1ccc(O)cc1)c1ccc(O)cc1 | false (0)
* CCCCCCCCCC[N+](C)(C)CCCCCCCCCC | false (0)
* C=CC(=O)NCNC(=O)C=C | false (0)
* CN(C)c1nc(=O)n(C2CCCCC2)c(=O)n1C | false (0)
* Cc1cc2c3c(c1)C(c1ccccc1)=N[C@@H](NC(=O)c1ccncc1)C(=O)N3CC2 | false (0)
* O=NN(c1ccccc1)c1ccccc1 | false (0)
* C1CC2OC2CC1C1CO1 (configuration not stated) | false (0)

###

# Read-out: Forkhead box O1 (FOXO1), FOXO1 (gene 2308)
# protocol-text: LTEA_HepaRG_FOXO1: Life Technologies and Expression Analysis (LTEA) Assay for Forkhead box O1 (FOXO1) using HepaRG (AID 2283456)
# condition-details: mRNA level, 48 h; actives raise or lower the signal
Active and inactive are the calls of the source. The calls were made as follows: active = hit-call score of the fitted dose curve at least 0.9, where 1 is the maximum; inactive = score below 0.9.
assay-readout: AC50

• Cc1ccccc1[N+](=O)[O-] = inactive
• C=CC(=O)NCNC(=O)C=C = inactive
• Cc1cc2c3c(c1)C(c1ccccc1)=N[C@@H](NC(=O)c1ccncc1)C(=O)N3CC2 = inactive
• CCOP(=S)(OCC)SCSC(C)(C)C = inactive
• CC(C)(O)C(=O)Nc1ccc([N+](=O)[O-])c(C(F)(F)F)c1 = 0.0468 µM (active)
• Oc1ccc(C(c2ccc(O)cc2)(C(F)(F)F)C(F)(F)F)cc1 = 81 µM (active)
• CCOC(=O)C(O)(c1ccc(Cl)cc1)c1ccc(Cl)cc1 = inactive
• Clc1ccc(C(c2ccccc2Cl)C(Cl)(Cl)Cl)cc1 (stereo unspecified) = inactive
• CCCCCCCCCc1ccc(O)cc1 = inactive
• C=CC(N)=O = inactive
• ClC1=C(Cl)[C@]2(Cl)[C@@H]3[C@H]4C[C@H]([C@@H]5O[C@H]45)[C@@H]3[C@@]1(Cl)C2(Cl)Cl = inactive
• CC(c1ccc(O)cc1)(c1ccc(O)cc1)c1ccc(O)cc1 = 73.5 µM (active)
• Oc1c(Cl)c(Cl)c(Cl)c(Cl)c1Cl = 6.85 µM (active)
• C[C@]12CCC(=O)C=C1CC[C@@H]1[C@@H]2CC[C@@]2(C)[C@H]1CC[C@]2(C)O = inactive
• ClC1=C(Cl)[C@]2(Cl)[C@@H]3[C@@H]4C[C@@H]([C@H]5O[C@@H]45)[C@@H]3[C@@]1(Cl)C2(Cl)Cl = inactive
• Cc1ccccc1CO[C@@H]1C[C@@]2(C(C)C)CC[C@]1(C)O2 = inactive
• CCSC(=O)N(CC)C1CCCCC1 = inactive
• c1cc2ccc3cccc4ccc(c1)c2c34 = inactive
• Nn1cnnc1 = inactive
• O=C(N[C@H]1CN2CCC1CC2)c1cc2ccoc2cn1 = inactive
• CC#Cc1cc(C)nc(Nc2ccccc2)n1 = inactive
• CCOCCOC(C)=O = inactive
• O=C(NC(=O)c1cc(F)c(F)cc1Cl)Nc1cc(F)ccc1N1CCC(C(=O)O)CC1 = inactive
• CCC(C)(CC)c1cc(NC(=O)c2c(OC)cccc2OC)on1 = inactive
• CN(C)CCO = inactive
• N#Cc1ccc(N(CC(N)=O)CC(F)(F)F)cc1C(F)(F)F = inactive
